- experimentalDetails: qHTS Assay for Anthrax Lethal Toxin Internalization; further: on the % scale 0 is the no-effect control and ±100 the full control effect; nearly all actives have a fitted effect of over 50% in size
- measurementParameters: Cells, FRET ratio (460/530); series mostly up to 40 µM
About 470 (0.67%) of roughly 70,000 compounds were called active. Inconclusive results (about 18%) are left out. The entries come from a sample that favours actives as a whole.
measurementKind: activity change, negative = inhibition

CCOC(=O)C1CCc2nc3ccccc3c(=O)n21 (configuration not stated)	inactive
CC(C)CO/N=C1/C[C@@H](O)[C@@H](O)[C@@H]2[C@@H]3C(=O)N(C[C@@H]4CCCO4)C(=O)[C@H]3CC[C@@H]12	0.14% [at 8 µM] (inactive)
O=c1[nH]c(=O)n([C@H]2C[C@H](O)[C@H](CO)O2)cc1Br	inactive
COc1ccc(Br)c2c1C[C@H](C(=O)O)CC2	-10.3% [at 8 µM] (inactive)
N#CCCn1c(=O)c(-c2cc(F)cc(F)c2)nc2cnc(Oc3ccccc3)nc21	inactive

query: Identify measured activity change, negative = inhibition corresponding to CC(C)(C)NCC[C@@H](O)c1cc(C(F)(F)F)nc2c(C(F)(F)F)cccc12
result: -2.37% [at 8 µM] (inactive)

query: Identify measured activity change, negative = inhibition corresponding to CCCCCCN(C(=O)CCCCCN1C(=O)NC(c2ccc(C(F)(F)F)cc2)C(C(=O)OCc2ccccc2)=C1C)C(C(=O)NCCCC)c1ccc(OCC(=O)OC)c(C(=O)OC)c1 (configuration not stated)
result: inactive

Origin of measurements: PubChem BioAssay AID912
